# targetDesc: Autotaxin (Homo sapiens)
# methodDescription: Noncompetitive inhibition of human recombinant C-terminal FLAG-tagged autotaxin expressed in baculovirus-infected Sf9 cells assessed as FS-3 hydrolysis by Michaelis-Menten method
pKi: −log10 of the molar value.
endpointLabel: pKi

{"columns": ["molecule", "numericReadout"],
 "data": [
  ["Nc1c(/N=N/c2ccc(-c3ccc(/N=N/c4cc(S(=O)(=O)O)c5ccccc5c4N)cc3)cc2)cc(S(=O)(=O)O)c2ccccc12 [CONGO RED]", 5.72]
]}

====

// reported inhibition per item
# targetDesc: Autotaxin (Homo sapiens)
# methodDescription: Inhibition of human recombinant C-terminal FLAG-tagged autotaxin expressed in baculovirus-infected Sf9 cells assessed as FS-3 hydrolysis at 10 uM relative to control
endpointLabel: inhibition (%)

{"columns": ["molecule", "numericReadout"],
 "data": [
  ["N=C(N/N=C/c1ccccc1S(=O)(=O)O)C(=N)N/N=C/c1ccccc1S(=O)(=O)O", 5],
  ["O=C(CC(C(=O)O)S(=O)(=O)O)Nc1ccc(S(=O)(=O)c2ccc(NC(=O)CC(C(=O)O)S(=O)(=O)O)cc2)cc1 (stereo not drawn)", 1],
  ["O=C(Nc1ccc2c(O)cc(S(=O)(=O)O)cc2c1)Nc1ccc2c(O)c(/N=N/c3ccc4cc(S(=O)(=O)O)ccc4c3)c(S(=O)(=O)O)cc2c1", 36],
  ["COc1cc(-c2ccc(/N=N/c3c(S(=O)(=O)O)cc4cc(S(=O)(=O)O)cc(N)c4c3O)c(OC)c2)ccc1/N=N/c1c(S(=O)(=O)O)cc2cc(S(=O)(=O)O)cc(N)c2c1O", 93],
  ["O=C(Nc1ccc(S(=O)(=O)O)cc1)c1ccc(/N=N/c2cc(S(=O)(=O)O)c3ccccc3c2O)cc1", 1],
  ["O=C(Nc1ccc2cc(S(=O)(=O)O)ccc2c1)c1ccc(/N=N/c2c(S(=O)(=O)O)cc3cc(S(=O)(=O)O)cc(NC(=O)c4ccccc4)c3c2O)cc1", 72],
  ["O=C(Nc1ccc2cc(S(=O)(=O)O)cc(O)c2c1)Nc1ccc2cc(S(=O)(=O)O)cc(O)c2c1", -6],
  ["Cc1cc(-c2ccc(/N=N/c3ccc4c(S(=O)(=O)O)cc(S(=O)(=O)O)c(N)c4c3O)c(C)c2)ccc1/N=N/c1ccc2c(S(=O)(=O)O)cc(S(=O)(=O)O)c(N)c2c1O", 64],
  ["Nc1ccc2cc(S(=O)(=O)O)cc(O)c2c1/N=N/c1ccc(NC(=O)c2ccc(C(=O)Nc3ccc(/N=N/c4c(N)ccc5cc(S(=O)(=O)O)cc(O)c45)c(S(=O)(=O)O)c3)cc2)cc1S(=O)(=O)O", 52],
  ["COc1cc(/N=N/c2c(C)cc(C)cc2S(=O)(=O)O)c(C)cc1/N=N/c1c(S(=O)(=O)O)cc2cc(Nc3ccccc3)ccc2c1O", 2],
  ["O=C1/C(=C2\\Nc3ccc(S(=O)(=O)O)cc3C2=O)Nc2ccc(S(=O)(=O)O)cc21", 12],
  ["COc1ccccc1/N=N/c1c(S(=O)(=O)O)cc2cc(NC(=O)Nc3ccc4c(O)c(/N=N/c5c(N)ccc6cc(S(=O)(=O)O)ccc56)c(S(=O)(=O)O)cc4c3)ccc2c1O", 84],
  ["Nc1ccc2c(O)c(/N=N/c3ccc4c(O)cc(S(=O)(=O)O)cc4c3)c(S(=O)(=O)O)cc2c1", 30]
]}
